- System Under Test: T1, ARHGEF11, O15085
- T1 sequence (O15085 42-136, limits assumed, looked up): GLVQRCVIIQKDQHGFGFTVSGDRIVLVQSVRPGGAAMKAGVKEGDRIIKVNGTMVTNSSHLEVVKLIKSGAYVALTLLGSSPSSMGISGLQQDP
- Run Description: holdup assay
- Design: key: below the threshold = too weak to quantify, mostly under pKd 3.1 to 4
- Conditions Used: plain residues with an end cap or a label only (N-terminal biotin on a linker: ado-ado)
Observed Property: pKd

For orientation, consider the following solved cases.
PKSNSSKEYV [CLDN7, O95471]
below the threshold
LPPPESESKV [KCNJ9, Q92806]
below the threshold
NSTHNLKDYV [CLDN20, P56880]
below the threshold
DAAHHDESNC [FMNL3, Q8IVF7]
below the threshold
FVFESRKEIL [TBPL1, P62380]
below the threshold

Kindly give each listed record's pKd.
1. LVEEEEPMNL [HDAC7, Q8WUI4]
2. ELKAEDEVQI [DCHS2, Q6V1P9]
3. QRYPGNQTTC [CCL24, O00175]
4. KPDKQEEFYA [SDC3, O75056]

1. below the threshold
2. below the threshold
3. below the threshold
4. below the threshold
